protocol-notes: Solubility in water of TBD salts (crude samples)
Assay type: physicochemical
measured-quantity: Solubility in water

[
  {
    "molecule": "C1CN=C2NCCCN2C1.O=C(O)Cc1ccc([N+](=O)[O-])cc1 [Example 9, TBD 4-nitrophenylacetate]",
    "reported-result": "≥ 20 g/100ml"
  },
  {
    "molecule": "C1CN=C2NCCCN2C1.O=C(O)c1ccccc1I [Example 15, TBD 2-iodobenzoate]",
    "reported-result": "≥ 10 g/100ml"
  },
  {
    "molecule": "C1CN=C2NCCCN2C1.O=C(O)Cc1ccc([N+](=O)[O-])cc1[N+](=O)[O-] [Example 10, TBD 2,4-dinitrophenylacetate]",
    "reported-result": "≥ 30 g/100ml"
  },
  {
    "molecule": "C1CN=C2NCCCN2C1.O=C(O)c1cc([N+](=O)[O-])ccc1O",
    "reported-result": "≥ 160 g/100ml"
  },
  {
    "molecule": "C1CN=C2NCCCN2C1.O=C(O)c1cc(Cl)ccc1[N+](=O)[O-] [Example 11, TBD 5-chloro-2-nitrobenzoate]",
    "reported-result": "≥ 40 g/100ml"
  },
  {
    "molecule": "C1CN=C2NCCCN2C1.O=C(O)c1ccc(Cl)c([N+](=O)[O-])c1 [Example 12, TBD 4-chloro-3-nitrobenzoate]",
    "reported-result": "≥ 40 g/100ml"
  }
]

# Solubility in water lookup, item C1CN=C2NCCCN2C1.O=C(O)c1ccc(Cl)cc1[N+](=O)[O-] [Example 8, TBD 4-chloro-2-nitrobenzoate]
≥ 10 g/100ml

Any idea what Solubility in water was measured for C1CN=C2NCCCN2C1.O=C(O)c1ccc([N+](=O)[O-])c(O)c1 [Example 14, TBD 3-hydroxy-4-nitrobenzoate] ?
≥ 30 g/100ml

What does the record list as Solubility in water for "C1CN=C2NCCCN2C1.C1CN=C2NCCCN2C1.O=C(O)c1cc(C(=O)O)cc([N+](=O)[O-])c1" ?
≥ 30 g/100ml
